- test-target: T1, Human β-Klotho (human, UniProt Q86Z14 1-996)
- T1 sequence (looked up): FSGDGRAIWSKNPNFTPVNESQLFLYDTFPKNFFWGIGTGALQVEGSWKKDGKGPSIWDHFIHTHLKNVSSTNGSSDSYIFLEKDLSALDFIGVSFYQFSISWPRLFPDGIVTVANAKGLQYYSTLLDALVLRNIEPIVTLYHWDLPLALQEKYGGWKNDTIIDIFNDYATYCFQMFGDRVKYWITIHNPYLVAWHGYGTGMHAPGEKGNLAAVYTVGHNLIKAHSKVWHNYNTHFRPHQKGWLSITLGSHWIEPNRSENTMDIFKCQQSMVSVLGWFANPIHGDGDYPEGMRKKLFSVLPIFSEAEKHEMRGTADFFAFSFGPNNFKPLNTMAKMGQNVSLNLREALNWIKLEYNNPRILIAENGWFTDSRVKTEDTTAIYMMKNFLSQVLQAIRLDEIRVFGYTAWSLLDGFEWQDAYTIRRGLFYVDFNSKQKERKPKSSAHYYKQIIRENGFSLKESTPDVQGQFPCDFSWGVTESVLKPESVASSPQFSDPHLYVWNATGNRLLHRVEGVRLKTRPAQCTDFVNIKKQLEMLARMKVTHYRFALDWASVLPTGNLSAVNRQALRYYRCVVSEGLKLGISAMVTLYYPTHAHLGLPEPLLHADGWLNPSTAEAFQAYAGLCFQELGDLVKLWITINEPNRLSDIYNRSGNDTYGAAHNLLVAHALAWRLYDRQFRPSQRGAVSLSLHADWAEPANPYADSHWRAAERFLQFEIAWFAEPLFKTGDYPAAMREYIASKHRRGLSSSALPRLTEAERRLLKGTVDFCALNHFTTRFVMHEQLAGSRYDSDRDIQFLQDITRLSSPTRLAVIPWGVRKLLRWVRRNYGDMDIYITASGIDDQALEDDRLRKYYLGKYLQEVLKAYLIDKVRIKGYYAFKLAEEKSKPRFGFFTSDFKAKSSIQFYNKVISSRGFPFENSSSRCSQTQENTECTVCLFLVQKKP
- method: cell-based or functional assay
property-name: EC50 of FGFR1c/β-Klotho activation, luciferase reporter in modified HEK293 cells, 6 h (ng/mL)
Output spec: scalar in ng/mL, unitless text.

Input line: Bench note: what EC50 of FGFR1c/β-Klotho activation, luciferase reporter in modified HEK293 cells, 6 h did htFGF21 variant with S195G, P199G, S200G, Q201H, and A208T mutations (htM5) (ligand, human, UniProt Q9NSA1 33-209, looked up, human FGF21 with S195G, P199G, S200G, Q201H and A208T; A Gly from the TEV site probably remains at the N-terminus (surmised); also called M5 variant; not shown: Trx, N-terminal, cleaved) DSSPLLQFGGQVRQRYLYTDDAQQTEAHLEIREDGTVGGAADQSPESLLQLKALKPGVIQILGVKTSRFLCQRPDGALYGSLHFDPEACSFRELLLEDGYNVYQSEAHGLPLHLPGNKSPHRDPAPRGPARFLPLPGLPPALPEPPGILAPQPPDVGSSDPLGMVGGGHGRSPSYTS show?
Output line: 0.52

Input line: Would you mind telling me what EC50 of FGFR1c/β-Klotho activation, luciferase reporter in modified HEK293 cells, 6 h value was observed for htFGF21 variant with Q201H and A208T mutations (htM2) (ligand, human, UniProt Q9NSA1 33-209, looked up, human FGF21 with Q201H and A208T; A Gly from the TEV site probably remains at the N-terminus (surmised); not shown: Trx, N-terminal, cleaved) DSSPLLQFGGQVRQRYLYTDDAQQTEAHLEIREDGTVGGAADQSPESLLQLKALKPGVIQILGVKTSRFLCQRPDGALYGSLHFDPEACSFRELLLEDGYNVYQSEAHGLPLHLPGNKSPHRDPAPRGPARFLPLPGLPPALPEPPGILAPQPPDVGSSDPLSMVGPSHGRSPSYTS ?
Output line: 1.37

Input line: Fill in: EC50 of FGFR1c/β-Klotho activation, luciferase reporter in modified HEK293 cells, 6 h of wild type human FGF21 purified through heat treatment (htFGF21) (ligand, UniProt Q9NSA1 33-209, looked up, human fibroblast growth factor 21 (FGF21), residues 33-209; The TEV site ENLYFQ/G stood between Trx and FGF21, so a Gly probably remains before residue 33 after cleavage (surmised); also called htWT; wild type htFGF21; not shown: Trx, N-terminal, cleaved) DSSPLLQFGGQVRQRYLYTDDAQQTEAHLEIREDGTVGGAADQSPESLLQLKALKPGVIQILGVKTSRFLCQRPDGALYGSLHFDPEACSFRELLLEDGYNVYQSEAHGLPLHLPGNKSPHRDPAPRGPARFLPLPGLPPALPEPPGILAPQPPDVGSSDPLSMVGPSQGRSPSYAS is ___
Output line: 2.74

Values from paper PMC9849446
